- protocol_description: TOX21_p53_BLA_p5_viability: Viability Assessment in the Tox21 HCT-116 p53 Agonism Beta-lactamase Assay, Phase 5 (AID 2283600)
Records with an inconclusive call do not appear. Activity calls are given as the source filed them. Rule for the calls: active = hit-call score of the fitted dose curve at least 0.9, where 1 is the maximum; inconclusive = response in the unintended direction; inactive = score below 0.9.
Bench note: report the call from T for active, F for inactive

molecule: COc1ccc2c(c1)OC(C)(C)C(c1ccccc1)C2c1ccc(OCCN2CCCC2)cc1 (stereo not drawn)
label_class: T
//
molecule: Cc1ccc(C(=O)O)cc1
label_class: F

# input Kindly provide the recorded test outcome for the following molecule: CC(C)CNCC(C)C
# output F

# input Hi, do you know how CC[N+](C)(C)Cc1ccccc1Br came out in this test?
# output F

# input Could you kindly confirm the outcome this assay logged for CC(=O)C=Cc1ccco1 ?
# output F

# input Per the assay record, what outcome was assigned to O=P(O)(OCc1ccccc1)OCc1ccccc1 ?
# output F

# input Short answer needed: outcome of this test for Cc1cc(O)c2c(c1)O[C@@]1(C)CC[C@H]3C(C)(C)CCCC34CO[C@@H]2[C@H]41 (stereo partly drawn) ?
# output T
